Here the recorded inhibition at 10 µM is given for each entry.
Assay System: human synovial fluid PLA2 (Homo sapiens)
Construct: Purified human synovial fluid; from tissue; host or cells: human synovial fluid
Sequence (P14555 21-144): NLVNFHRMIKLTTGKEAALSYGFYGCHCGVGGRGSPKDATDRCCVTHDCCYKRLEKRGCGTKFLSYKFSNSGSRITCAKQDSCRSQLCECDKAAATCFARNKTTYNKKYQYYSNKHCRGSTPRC
Protocol Text: In vitro isolated phospholipase A2 assay, human synovial fluid PLA2
Assay type: biochemical
Cond: 10 μM; human synovial fluid; negative values denote potentiation; read-out: % Inhibition at 10 μM HSF
Counter-ions that a name gives are not always drawn.
Provide the reading as a plain figure in %.

Sample answers from the record:
1) O=C1Cc2cc(OCc3ccc4ccccc4n3)ccc2N1c1ccccc1
-24
2) CONC(=O)Cc1cc(OCc2ccc3ccccc3n2)ccc1Nc1c(Cl)cccc1Cl
-41.5
3) COC(=O)Cc1cc(OCc2ccc3ccc(Cl)cc3n2)ccc1Nc1c(Cl)cccc1Cl
-127
4) O=C1Cc2cc(OCc3ccc4ccc(Cl)cc4n3)ccc2N1c1c(Cl)cccc1Cl
5.1
5) O=C1Cc2cc(OCc3ccc4ccccc4n3)ccc2N1c1c(Cl)cccc1Cl
-11
6) O=C(O)Cc1cc(OCc2ccc3ccccc3n2)ccc1Nc1c(Cl)cccc1Cl [Example 3, acetic acid sodium salt]
21.7
7) O=C(O)Cc1cc(OCc2ccc3ccccc3n2)ccc1Nc1ccccc1
-4.3

Here is the next item to consider.
Looking for the measured inhibition at 10 µM of O=C(O)Cc1cc(OCc2ccc3ccc(Cl)cc3n2)ccc1Nc1c(Cl)cccc1Cl , can you help?
38.8
